Ref: patent US20230192896A1

- assay target: T1, FX zymogen (UniProt P00742 41-179; P00742 183-488)
- T1 chain 1: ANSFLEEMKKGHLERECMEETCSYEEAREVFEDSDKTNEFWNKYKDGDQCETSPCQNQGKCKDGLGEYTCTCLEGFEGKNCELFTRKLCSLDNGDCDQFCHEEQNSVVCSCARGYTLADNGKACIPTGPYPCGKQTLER
- T1 chain 2: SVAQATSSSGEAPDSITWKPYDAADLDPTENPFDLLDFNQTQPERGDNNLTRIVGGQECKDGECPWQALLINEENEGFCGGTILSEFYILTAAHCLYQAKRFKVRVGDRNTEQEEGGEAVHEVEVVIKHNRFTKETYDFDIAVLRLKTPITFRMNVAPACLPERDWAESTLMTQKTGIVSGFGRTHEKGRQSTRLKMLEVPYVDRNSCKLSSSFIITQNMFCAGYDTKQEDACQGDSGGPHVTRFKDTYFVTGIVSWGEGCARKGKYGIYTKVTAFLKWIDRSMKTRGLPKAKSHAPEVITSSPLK
- procedure details: BLI
Please go through the items and note down their Kd.
Give the number; nM is assumed, so skip it.

Asked: Supply reported Kd belonging to this binder: BIIB-12-918 (antibody, V domains shown) VH: QVQLVESGGGVVQPGRSLRLSCAASGFTFSSYGMHWVRQAPGKGLEWVAVISYDGSNKYYADSVKGRFTISRDNSKNTLYLQMNSLRAEDTAVYYCAKSLGGRSFDIWGQGTMVTVSS VL: DIQMTQSPSSLSASVGDRVTITCRASQSISRYLNWYQQKPGKAPKLLIYAASSLQSGVPSRFSGSGSGTDFTLTISSLQPEDFATYYCQQIFSLPITFGGGTKVEIK
Given back: 27.7

Asked: Supply reported Kd belonging to this binder: BIIB-12-1309 (antibody, V domains shown) VH: QVQLVESGGGVVQPGRSLRLSCAASGFTFSSYGMHWVRQAPGKGLEWVAVISYDGSNKYYADSVKGRFTISRDNSKNTLYLQMNSLRAEDTAVYYCARGRYTSRYFQHWGQGTLVTVSS VL: DIQMTQSPSSVSASVGDRVTITCRASQGISSWLAWYQQKPGKAPKLLIYAASSLQSGVPSRFSGSGSGTDFTLTISSLQPEDFATYYCQQANSLPITFGGGTKVEIK
Given back: 49.9
